Reported Property: melting point

Guide cases for melting point, answers given:
[[record]]
compound = "O=C(Cc1ccc(C(F)(F)F)cc1)NCCNCC(O)COc1ccc(OCCOC2CCCC2)cc1 (stereo not drawn) [62o]"
observed_value = "132 to 133 °C"

[[record]]
compound = "Nc1ccccc1C(=O)NCCNCC(O)COc1ccc(OCCOC2CCCC2)cc1 (stereo not drawn) [62b]"
observed_value = "107 to 109 °C"


Now let's try a different one.
*Q* Please give the measured melting point for this compound: COc1cccc(NC(=O)NCCNCC(O)COc2ccc(OCCOC3CCCC3)cc2)c1 (stereo not drawn) [47f]
*A* 103 to 110 °C

----------
Tested Target: UniProt:P08588
Run Description: 3H-CGP12177 whole-cell binding, CHO cells expressing human beta1-adrenoceptor
Design: expressed in transfected cells; host or cells: CHO cells
Particulars: 3H-CGP 12177 whole cell binding, log KD, mean ± s.e.mean, read-out: Beta 1 Log KD (converted)
The following molecules are shown together with reported Kd values.
Provide the reading as a plain figure in µM.

Guide cases for Kd, answers given:
[[record]]
molecule = "Cc1ccc(CC(=O)NCCNCC(O)COc2ccc(OCCOC3CCCC3)cc2)cc1 (stereo not drawn) [62r]"
observed_value = 0.0501

[[record]]
molecule = "OC(CNCCOc1ccccc1)COc1ccc(OCCOC2CCCC2)cc1 (stereo not drawn)"
observed_value = 0.0347

[[record]]
molecule = "CCOCCOc1ccc(OCC(O)CNCCNC(=O)Cc2cccc(O)c2)cc1 (stereo not drawn) [46h]"
observed_value = 0.0447

[[record]]
molecule = "OC(CNCCOc1ccc(-c2ccccc2)cc1)COc1ccc(OCCOC2CCCC2)cc1 (stereo not drawn) [65d]"
observed_value = 0.398

[[record]]
molecule = "O=C(NCCNCC(O)COc1ccc(OCCOCC2CC2)cc1)Nc1ccc(O)cc1 (stereo not drawn) [46a]"
observed_value = 0.0302


*Q* Please give the measured Kd for this molecule: O=S(=O)(Cc1ccccc1)NCCNCC(O)COc1ccc(OCCOC2CCCC2)cc1 (stereo not drawn)
*A* 0.0257

*Q* Okay, and O=C(NCCNCC(O)COc1ccc(OCCOC2CCCC2)cc1)Nc1ccc(OCCF)cc1 (stereo not drawn) [47x] ?
*A* 0.0178

*Q* Okay, and Nc1cccc(C(=O)NCCNCC(O)COc2ccc(OCCOC3CCCC3)cc2)c1 (stereo not drawn) [62c] ?
*A* 0.174

*Q* Okay, and O=C(Cc1cccc(C(F)(F)F)c1)NCCNCC(O)COc1ccc(OCCOC2CCCC2)cc1 (stereo not drawn) [62n] ?
*A* 0.0132

----------
Tested Target: beta1-adrenoceptor (Homo sapiens)
Sequence (P08588 whole entry): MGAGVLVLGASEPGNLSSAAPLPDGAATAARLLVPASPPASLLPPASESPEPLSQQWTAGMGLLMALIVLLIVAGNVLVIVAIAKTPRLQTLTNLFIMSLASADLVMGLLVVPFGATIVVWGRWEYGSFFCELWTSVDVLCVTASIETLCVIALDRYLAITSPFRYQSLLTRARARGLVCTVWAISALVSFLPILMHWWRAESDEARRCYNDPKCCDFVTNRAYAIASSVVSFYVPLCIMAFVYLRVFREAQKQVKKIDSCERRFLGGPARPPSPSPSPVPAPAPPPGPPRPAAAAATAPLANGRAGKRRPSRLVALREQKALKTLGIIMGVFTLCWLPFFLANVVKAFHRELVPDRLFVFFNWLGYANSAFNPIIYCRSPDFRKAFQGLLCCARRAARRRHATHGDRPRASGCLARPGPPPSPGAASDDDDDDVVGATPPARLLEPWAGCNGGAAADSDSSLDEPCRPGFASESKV
Run Description: 3H-CGP12177 whole-cell binding, CHO cells expressing human beta1-adrenoceptor
Design: expressed in transfected cells; host or cells: CHO cells
Particulars: 3H-CGP 12177 whole cell binding, mean ± s.e.mean
Reported Property: Beta 1 Log KD

Guide cases for Beta 1 Log KD, answers given:
[[record]]
compound = "Cc1ccc(NC(=O)NCCNCC(O)COc2ccc(OCCOC3CCCC3)cc2)cc1 (stereo not shown) [47d]"
tested_target = "beta1-adrenoceptor (Homo sapiens)"
reported_property = "Beta 1 Log KD"
observed_value = "−7.76 ± 0.04"

[[record]]
compound = "O=C(NCCNCC(O)COc1ccc(OCCOC2CCCC2)cc1)Nc1ccccc1F (stereo not shown) [47h]"
tested_target = "beta1-adrenoceptor (Homo sapiens)"
reported_property = "Beta 1 Log KD"
observed_value = "−7.82 ± 0.03"

[[record]]
compound = "O=C(NCCNCC(O)COc1ccc(OCCOC2CCCC2)cc1)Nc1cccc(O)c1 (stereo not shown) [47u]"
tested_target = "beta1-adrenoceptor (Homo sapiens)"
reported_property = "Beta 1 Log KD"
observed_value = "−7.89 ± 0.06"


Now let's try a different one.
*Q* Please give the measured Beta 1 Log KD for this compound: COc1ccc(NC(=O)NCCNCC(O)COc2ccc(OCCOC3CCCC3)cc2)cc1 (stereo not shown) [47g]
*A* −7.80 ± 0.04
